# System: 362531-283-R-J2-PDC complex spheroid viability
# assay_name: Anticancer human tumor 362531-283-R-J2-PDC patient-derived colon adenocarcinoma cell line growth inhibition [RAS]
# condition_parameters: curve of first compound; second compound 0.0949 µM
pIC50: −log10 of the molar value.
Record met whenever pIC50 is at 7 or higher; record not met when lower.

{"columns": ["molecule", "assigned_category"],
 "data": [
  ["CCc1c2c(nc3ccc(O)cc13)-c1cc3c(c(=O)n1C2)COC(=O)[C@]3(O)CC + CCn1c(-c2cc(N3CCN(C)CC3)cnc2C(C)OC)c2c3cc(ccc31)-c1csc(n1)CC(NC(=O)C1CC1C)C(=O)N1CCCC(N1)C(=O)OCC(C)(C)C2", "met"],
  ["Cc1nc(N2CCC3(CC2)COC(C)C3N)c(CO)nc1Sc1ccnc(N)c1Cl (stereo not drawn) + CCn1c(-c2cc(N3CCN(C)CC3)cnc2C(C)OC)c2c3cc(ccc31)-c1csc(n1)CC(NC(=O)C1CC1C)C(=O)N1CCCC(N1)C(=O)OCC(C)(C)C2", "not met"],
  ["CC1(C)CCC(Nc2ncc(C(F)(F)F)c(-c3c[nH]c4c(P(C)(C)=O)c(C#N)ccc34)n2)CN1 (stereo not drawn) + CCn1c(-c2cccnc2C(C)OC)c2c3cc(ccc31)N1CCOC(CC(NC(=O)C(C(C)C)N(C)C(=O)C3(F)CCN(C(=O)C#CC(C)(C)N(C)C)CC3)C(=O)N3CCCC(N3)C(=O)OCC(C)(C)C2)C1", "not met"],
  ["CCc1c2c(nc3ccc(O)cc13)-c1cc3c(c(=O)n1C2)COC(=O)[C@]3(O)CC + CCn1c(-c2cccnc2C(C)OC)c2c3cc(ccc31)N1CCOC(CC(NC(=O)C(C(C)C)N(C)C(=O)C3(F)CCN(C(=O)C#CC(C)(C)N(C)C)CC3)C(=O)N3CCCC(N3)C(=O)OCC(C)(C)C2)C1", "met"],
  ["CC(C)NCC(C(=O)N1CCN(c2ncnc3c2C(C)CC3O)CC1)c1ccc(Cl)cc1 (stereo not drawn) + CCn1c(-c2cc(N3CCN(C)CC3)cnc2C(C)OC)c2c3cc(ccc31)-c1csc(n1)CC(NC(=O)C1CC1C)C(=O)N1CCCC(N1)C(=O)OCC(C)(C)C2", "not met"]
]}

Data request: Please tell me: is the molecule CCN1CCN(Cc2ccc(Nc3ncc(F)c(-c4cc(F)c5nc(C)n(C(C)C)c5c4)n3)nc2)CC1 + CCn1c(-c2cccnc2C(C)OC)c2c3cc(ccc31)N1CCOC(CC(NC(=O)C(C(C)C)N(C)C(=O)C3(F)CCN(C(=O)C#CC(C)(C)N(C)C)CC3)C(=O)N3CCCC(N3)C(=O)OCC(C)(C)C2)C1 at or over 7 in terms of pIC50?
Data returned: not met

====

Each record here notes measured IC50.
# System: 362531-283-R-J2-PDC complex spheroid viability
# assay_name: Anticancer human tumor 362531-283-R-J2-PDC cell line growth inhibition [RAS];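 further: spheroids exposed to the agents for 7 days before readout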
# condition_parameters: curve of first compound; second compound 0.0949 µM
# Text: RAS pathway inhibitors in Combinations in Complex Spheroids A high-throughput screen of multi-cell type tumor spheroids was designed to identify active combinations of RAS pathway inhibitors and targeted small molecules. Complex spheroids include a stromal component modeled by human endothelial cells (HUVEC) and fibroblasts modeled by human mesenchymal stem cells (MSCs). […] Compounds. […] If the clinical Cmax for an agent had not been determined, the highest concentration tested was 10 microM. […]

Data request: GET /values?readout=IC50&item= CC1(O)CCCC1n1c(=O)c(C(F)F)cc2cnc(NC3CCN(S(C)(=O)=O)CC3)nc21 (stereo not drawn) + CCn1c(-c2cccnc2C(C)OC)c2c3cc(ccc31)N1CCOC(CC(NC(=O)C(C(C)C)N(C)C(=O)C3(F)CCN(C(=O)C#CC(C)(C)N(C)C)CC3)C(=O)N3CCCC(N3)C(=O)OCC(C)(C)C2)C1
Data returned: > 10 µM
